assay: Water solubility of solvents at 25° C. (saturated solution, chromatographic analysis); type: physicochemical
Where a name gives a salt, the structure may show the parent alone.
readout-name: % water solubility [by weight at 25° C.] (% by weight)

molecule="CCOC(=O)/C=C/C(=O)OCC [Diethyl fumarate]" measured_result=0.8
molecule="CC(=O)OCC(COC(C)=O)OC(C)=O [Triacetin (glycerol triacetate), glycerol triacetate]" measured_result=7.7
molecule=CCCCCCCCCCCCc1ccccc1 measured_result=0.000026
molecule="CCCCOC(=O)/C=C/C(=O)OCCCC [(E)-But-2-enedioic acid dibutyl ester]" measured_result=0.04
molecule=OCc1ccccc1 measured_result=4.4
molecule=CC(=O)c1ccccc1 measured_result=0.9
